The reported numbers originate from patent US5527821A.

Below: a set of entries, each annotated with reported Portal vein, in vitro: Max. contraction.
System: isolated rabbit portal vein
assay_summary: Effects on the isolated rabbit portal vein (contraction, in vitro)
Format: cell-based
measurement_conditions: female rabbit portal vein longitudinal strips; cumulative addition (12 concentrations); reference noradrenaline 6×10^-5 M; Krebs solution, 37° C.

- compound: "CC(C)Oc1c(Cl)cccc1C(O)CN(C)C (single isomer, unassigned; (+))"
  assay_system: "isolated rabbit portal vein"
  result: "15 % of NA-max"
- compound: "CC=COc1c(OC)cccc1C(O)CN1CCCC1.O=C(O)C(=O)O (stereo not shown)"
  assay_system: "isolated rabbit portal vein"
  result: "0 % of NA-max"
- compound: "COc1cccc(C(O)CN(C)C)c1OC(C)C (single isomer, unassigned) [Compound 6:4]"
  assay_system: "isolated rabbit portal vein"
  result: "8 % of NA-max"

Next compound, please.
Query string: Need Portal vein, in vitro: Max. contraction, item COc1cccc(C(O)CN(C)C)c1OC(C)C (single isomer, unassigned) [Compound 6:3]
Result string: 34 % of NA-max
